- method summary: Pharmacokinetics, unchanged RAF265 in plasma
- Type: in vivo, human
- experimental context: human, plasma, oral, 8 mg, Cycle 1 Day 1, DL 1, LD 8 mg; read-out: Cmax, Mean (SD)
measured parameter: Cmax (ng/mL)
Numbers only here, please. The scale is ng/mL.

Data point: "Cn1c(Nc2ccc(C(F)(F)F)cc2)nc2cc(Oc3ccnc(-c4ncc(C(F)(F)F)[nH]4)c3)ccc21" ; Cmax = 140

====

- method summary: Pharmacokinetics, unchanged RAF265 in plasma
- Type: in vivo, human
- experimental context: human, plasma, oral, 72 mg, First dose (PK run-in), DL 4, 72 mg; read-out: T1/2, Median (converted)
measured parameter: half-life (h)
Answer with a number only, understood to be in h.

Reported half-life ( "Cn1c(Nc2ccc(C(F)(F)F)cc2)nc2cc(Oc3ccnc(-c4ncc(C(F)(F)F)[nH]4)c3)ccc21" ) = 174

====

- method summary: Pharmacokinetics, unchanged RAF265 in plasma
- Assay type: in vivo, human
- experimental context: human, plasma, oral, 2 mg, Cycle 1 Day 15, DL 1, MD 2 mg; read-out: Tmax, Median
measured parameter: Tmax (h)
Hi! Could you send only the number? It should be in h, unit omitted.

# compound "Cn1c(Nc2ccc(C(F)(F)F)cc2)nc2cc(Oc3ccnc(-c4ncc(C(F)(F)F)[nH]4)c3)ccc21" ; its Tmax = 3

====

- method summary: Pharmacokinetics, unchanged RAF265 in plasma
- Assay type: in vivo, human
- experimental context: human, plasma, oral, 3 mg, Cycle 1 Day 15, DL 2, MD 3 mg; read-out: AUC(0-tlast), Mean (SD)
measured parameter: AUC(0-t) (ng·h/mL)
# unit: ng·h/mL | format: bare number

Briefly, AUC(0-t) measured for "Cn1c(Nc2ccc(C(F)(F)F)cc2)nc2cc(Oc3ccnc(-c4ncc(C(F)(F)F)[nH]4)c3)ccc21" : 2300

====

- method summary: Pharmacokinetics, unchanged RAF265 in plasma
- Format: in vivo, human
- experimental context: human, plasma, oral, 6 mg, Cycle 1 Day 15, DL 3, MD 6 mg; read-out: Tmax, Median
measured parameter: Tmax (h)
Expressed in h, but write only the number.

Record Cn1c(Nc2ccc(C(F)(F)F)cc2)nc2cc(Oc3ccnc(-c4ncc(C(F)(F)F)[nH]4)c3)ccc21 [RAF265] , field Tmax: 2.52

====

- method summary: Pharmacokinetics, unchanged RAF265 in plasma
- Type: in vivo, human
- experimental context: human, plasma, oral, 72 mg, First dose (PK run-in), DL 4, 72 mg; read-out: Cmax, Mean (SD)
measured parameter: Cmax (ng/mL)
Express the result in ng/mL but write the number alone.

Cmax recorded for this compound, Cn1c(Nc2ccc(C(F)(F)F)cc2)nc2cc(Oc3ccnc(-c4ncc(C(F)(F)F)[nH]4)c3)ccc21 [RAF265] , is 540

====

- method summary: Pharmacokinetics, unchanged RAF265 in plasma
- Type: in vivo, human
- experimental context: human, plasma, oral, 16 mg, Cycle 1 Day 1, DL 2, LD 16 mg; read-out: Tmax, Median
- Method: PK parameters included the maximum observed concentration (C max), time to reach C max (T max), area under the curve from time 0 to last measurable concentration (AUClast), time point of the last measurable concentration (T last), and terminal half‐life of elimination phase (T 1/2). Cycle 1 Day 1 and day 15, reported PK parameters include C max, T max, AUClast and T last. […] The point estimate and associated 90% CI for the slope parameter were determined for safety considerations.
measured parameter: Tmax (h)
Kindly answer with a numeric value in h, unit omitted.

Tmax for Cn1c(Nc2ccc(C(F)(F)F)cc2)nc2cc(Oc3ccnc(-c4ncc(C(F)(F)F)[nH]4)c3)ccc21 [RAF265] is 3
